- Test system: A375 multi-cell spheroids with HUVEC/MSC, viability
- measurement_protocol: Anticancer human tumor A375 cell line growth inhibition [GQUAD];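 further: spheroids exposed to compounds for seven days before readout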
- test_context: second compound 10 µM; first compound 0.1 µM; stronger effect = lower value
Listing: viability, T/C of selected molecules
State just the number; it will be interpreted in %.

C=CC(=O)N1CCN(c2nc(=O)n(-c3c(C)ccnc3C(C)C)c3nc(-c4c(O)cccc4F)c(F)cc23)C(C)C1 (stereo not drawn) + Cc1cnc(CNC(=O)c2c(=O)c3ccc(N4CCCN(C)CC4)nc3n3c2sc2ccccc23)cn1 : 32.9
O=C(NO)c1cnc(N2CCN(S(=O)(=O)c3ccc4ccccc4c3)CC2)nc1 + CN(C)c1ccc(Nc2c3ccc(NC(=O)CCN4CCCC4)cc3nc3cc(NC(=O)CCN4CCCC4)ccc23)cc1 : 107

Let us move to another entry and its viability, T/C.
Name the recorded viability, T/C for COc1cccc2c1C(=O)c1c(O)c3c(c(O)c1C2=O)CC(O)(C(=O)CO)CC3OC1CC(N)C(O)C(C)O1 (stereo not drawn) + Cc1cnc(CNC(=O)c2c(=O)c3ccc(N4CCCN(C)CC4)nc3n3c2sc2ccccc23)cn1 .
24.9

----------
- System: A375 multi-cell spheroids with HUVEC/MSC, viability
- measurement_protocol: Anticancer human tumor A375 cell line growth inhibition [GQUAD];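 further: spheroids exposed to compounds for seven days before readout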
- test_context: curve of first compound; second compound 3.16 µM
observation_type: IC50

Below: 3 compounds and their reported IC50.
Cc1cccc(N(C)C(=O)C2C(O)CCN2c2nc(C)cc(C(F)(F)F)c2C#N)c1 (stereo unspecified) + CN(C)c1ccc(Nc2c3ccc(NC(=O)CCN4CCCC4)cc3nc3cc(NC(=O)CCN4CCCC4)ccc23)cc1 : > 10000 nM
O=C(NO)c1cnc(N2CCN(S(=O)(=O)c3ccc4ccccc4c3)CC2)nc1 + Cc1[nH]c2ccc(F)cc2c1-c1nc2c3cccnc3c3ncccc3c2[nH]1 : 202 nM
Cn1ncnc1[C@H]1c2n[nH]c(=O)c3cc(F)cc(c23)N[C@@H]1c1ccc(F)cc1 + Cc1[nH]c2ccc(F)cc2c1-c1nc2c3cccnc3c3ncccc3c2[nH]1 : > 316 nM

Form entry - test system: A375 multi-cell spheroids with HUVEC/MSC, viability; read-out: IC50; compound: O=C(NO)c1cnc(N2CCN(S(=O)(=O)c3ccc4ccccc4c3)CC2)nc1 + Cc1cnc(CNC(=O)c2c(=O)c3ccc(N4CCCN(C)CC4)nc3n3c2sc2ccccc23)cn1
< 31.6 nM

Please answer likewise for CC1COCCN1c1cc(C2(S(C)(=N)=O)CC2)nc(-c2ccnc3[nH]ccc23)n1 (stereo unspecified) + Cc1[nH]c2ccc(F)cc2c1-c1nc2c3cccnc3c3ncccc3c2[nH]1
1300 nM

Please answer likewise for CCc1c2c(nc3ccc(O)cc13)-c1cc3c(c(=O)n1C2)COC(=O)[C@]3(O)CC + Cc1cnc(CNC(=O)c2c(=O)c3ccc(N4CCCN(C)CC4)nc3n3c2sc2ccccc23)cn1
< 0.999 nM

Please answer likewise for C#Cc1c(F)ccc2cc(O)cc(-c3ncc4c(N5CC6CCC(C5)N6)nc(OCC56CCCN5CC(F)C6)nc4c3F)c12 (stereo unspecified) + Cc1[nH]c2ccc(F)cc2c1-c1nc2c3cccnc3c3ncccc3c2[nH]1
5370 nM

Please answer likewise for CCc1c2c(nc3ccc(O)cc13)-c1cc3c(c(=O)n1C2)COC(=O)[C@]3(O)CC + Cc1[nH]c2ccc(F)cc2c1-c1nc2c3cccnc3c3ncccc3c2[nH]1
< 0.999 nM

Please answer likewise for CCCS(=O)(=O)Nc1ccc(F)c(C(=O)c2c[nH]c3ncc(-c4ccc(Cl)cc4)cc23)c1F + Cc1[nH]c2ccc(F)cc2c1-c1nc2c3cccnc3c3ncccc3c2[nH]1
< 31.6 nM

Please answer likewise for CC[C@@]1(O)C(=O)OCc2c1cc1n(c2=O)Cc2cc3c(CN(C)C)c(O)ccc3nc2-1 + Cc1[nH]c2ccc(F)cc2c1-c1nc2c3cccnc3c3ncccc3c2[nH]1
38.4 nM

Please answer likewise for C=CC(=O)N1CCN(c2nc(=O)n(-c3c(C)ccnc3C(C)C)c3nc(-c4c(O)cccc4F)c(F)cc23)C(C)C1 (stereo unspecified) + CN(C)c1ccc(Nc2c3ccc(NC(=O)CCN4CCCC4)cc3nc3cc(NC(=O)CCN4CCCC4)ccc23)cc1
> 10000 nM
